System: TAB165
Assay: qHTS profiling for inhibitors of Plasmodium falciparum proliferation (AID 504749); further: nearly all actives have a fitted effect of over 60% in size; further: potency means the concentration at half of the fitted maximal effect
Settings: P. falciparum in erythrocytes, SYBR Green DNA, 72 h; series mostly up to 28.7 µM
Records with an inconclusive call do not appear. Activity calls are given as the source filed them. The call rests on the fitted dose curve; in most records, active means well fitted inhibition curve with a large enough effect; inconclusive means small, poorly fitted or top-dose-only effect; inactive means flat fitted curve, though single readings scatter.
readout.kind: Potency

Completed entries (count: 4):
[
  {
    "molecule": "CCN(CC)C(=O)Nc1ccc(OC[C@H](O)CNC(C)(C)C)c(C(C)=O)c1",
    "Potency": "inactive"
  },
  {
    "molecule": "C=C1CC[C@H](O)C/C1=C/C=C1\\CCC[C@]2(C)[C@@H]([C@H](C)CC[C@@H](O)C(C)(C)O)CC[C@@H]12",
    "Potency": "14.1 µM (active)"
  },
  {
    "molecule": "CC1C(=O)C(=O)C=CN1C (stereo unspecified)",
    "Potency": "inactive"
  },
  {
    "molecule": "C/C1=C2/[N-]C(C(CC(N)=O)[C@@]2(C)CCC(=O)NCC(C)OP(=O)([O-])O[C@H]2[C@@H](O)[C@@H](n3cnc4cc(C)c(C)cc43)O[C@@H]2CO)[C@]2(C)N=C(/C(C)=C3N=C(/C=C4N=C1C(CCC(N)=O)C\\4(C)C)[C@@H](CCC(N)=O)[C@]\\3(C)CC(N)=O)[C@@H](CCC(N)=O)[C@]2(C)CC(N)=O.CC(=O)O.[Co] (stereo partly specified)",
    "Potency": "inactive"
  }
]

-- ask Requested field: Potency. Item: COC1CC2CCC(C)[C@](O)(O2)C(=O)C(=O)N2CCCCC2C(=O)OC(C(C)CC2CCC(O)C(OC)C2)CC(=O)C(C)/C=C(/C)C(O)C(OC)C(=O)C(C)CC(C)C=CC=C/C=C\1C (stereo partly specified)
-- reply 1.12 µM (active)

-- ask Requested field: Potency. Item: COC(c1ccccc1)(c1ccccc1)C(Oc1nc(C)cc(C)n1)C(=O)O (stereo unspecified)
-- reply inactive

-- ask Requested field: Potency. Item: `CCCC[C@H](O)c1ccccc1`
-- reply inactive

-- ask Requested field: Potency. Item: COc1ccc2cc1Oc1cc3c(cc1OC)CC[N+](C)(C)C3Cc1ccc(cc1)Oc1c(OC)c(OC)cc3c1C(C2)[N+](C)(C)CC3 (stereo unspecified)
-- reply inactive

-- ask Requested field: Potency. Item: C[N+]12CCCC[C@@H]1CCC(=C(c1cccs1)c1cccs1)C2 (stereo partly specified)
-- reply 12.6 µM (active)

Origin of measurements: PubChem BioAssay (NCATS)
